These data points were gathered from paper PMC12193579.

remaining activity at 20 µM values, listed per item
# targetOrSystem: recombinant human CK2 catalytic subunit (rhCK2α) (Homo sapiens)
# Construct: made in house
# assayExplanation: radiometric P81 filter isotopic kinase assay, CK2α
# Format: biochemical
# experimentalConditions: cpd. concentration 20 μM; read-out: CK2α Residual Activity [%]
# Description: Synthetic peptide […] served as the substrate for CK2, while peptide […] was used as the substrate for PIM-1. The synthesized compounds were evaluated for their inhibitory activity against human CK2α, the human CK2 holoenzyme, and PIM-1 using the P81 filter-based isotopic assay, as previously described. […]
measuredEndpoint: remaining activity at 20 µM (%)

compound: CC(=O)Cn1cnc2c(Br)c(Br)c(Br)c(Br)c21
quantitativeReadout: 10.2

compound: CC(O)CCn1cnc2c(Br)c(Br)c(Br)c(Br)c21 (stereo not shown)
quantitativeReadout: 15.6

compound: CC(O)Cn1cnc2c(Br)c(Br)c(Br)c(Br)c21 (stereo not shown)
quantitativeReadout: 20.1

compound: CC(=O)CCn1cnc2c(Br)c(Br)c(Br)c(Br)c21
quantitativeReadout: 82.8

----------
# targetOrSystem: PIM-1 kinase (Homo sapiens, UniProt P11309)
# Construct: made in house
# Sequence (P11309 whole entry): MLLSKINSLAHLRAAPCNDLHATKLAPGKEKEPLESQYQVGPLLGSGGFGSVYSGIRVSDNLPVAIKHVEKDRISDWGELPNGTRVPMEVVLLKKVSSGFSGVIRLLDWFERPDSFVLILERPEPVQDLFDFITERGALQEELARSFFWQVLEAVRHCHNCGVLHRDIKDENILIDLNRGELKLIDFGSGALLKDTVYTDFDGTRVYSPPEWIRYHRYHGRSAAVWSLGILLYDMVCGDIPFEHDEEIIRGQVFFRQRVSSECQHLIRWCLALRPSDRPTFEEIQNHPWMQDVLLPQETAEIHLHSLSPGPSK
# assayExplanation: radiometric P81 filter isotopic kinase assay, PIM-1
# Format: biochemical
# experimentalConditions: cpd. concentration 5 μM; read-out: PIM-1 Residual Activity [%]
Some compounds, each annotated with its measured remaining activity at 5 µM.

compound: CC(=O)Cn1cnc2c(Br)c(Br)c(Br)c(Br)c21 [compound 1]
remaining activity at 5 µM: 10.3%

compound: CC(O)Cn1cnc2c(Br)c(Br)c(Br)c(Br)c21 (stereo not shown) [compound 2]
remaining activity at 5 µM: 26.4%

compound: CC(O)CCn1cnc2c(Br)c(Br)c(Br)c(Br)c21 (stereo not shown) [compound 4]
remaining activity at 5 µM: 29.1%

compound: CC(=O)CCn1cnc2c(Br)c(Br)c(Br)c(Br)c21 [compound 3]
remaining activity at 5 µM: 67.4%

----------
# targetOrSystem: recombinant human CK2 catalytic subunit (rhCK2α) (Homo sapiens, UniProt P68400)
# Construct: made in house
# Sequence (P68400 whole entry): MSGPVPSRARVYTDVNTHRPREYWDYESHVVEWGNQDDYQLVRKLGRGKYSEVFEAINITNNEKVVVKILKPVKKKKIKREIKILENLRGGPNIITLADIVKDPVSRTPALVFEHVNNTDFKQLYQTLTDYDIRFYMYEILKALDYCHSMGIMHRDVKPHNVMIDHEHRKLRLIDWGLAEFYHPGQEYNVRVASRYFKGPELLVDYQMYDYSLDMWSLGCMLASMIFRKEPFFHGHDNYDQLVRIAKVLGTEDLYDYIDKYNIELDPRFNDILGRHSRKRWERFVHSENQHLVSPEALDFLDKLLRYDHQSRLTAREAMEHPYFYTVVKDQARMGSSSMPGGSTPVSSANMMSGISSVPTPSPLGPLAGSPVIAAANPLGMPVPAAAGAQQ
# assayExplanation: radiometric P81 filter isotopic kinase assay, CK2α
# Assay type: biochemical
# experimentalConditions: cpd. concentration 5 μM; read-out: CK2α Residual Activity [%]
Items are presented alongside their recorded remaining activity at 5 µM.

molecule: CC(=O)CCn1cnc2c(Br)c(Br)c(Br)c(Br)c21
resultUnits: %
remaining activity at 5 µM: 89.2
//
molecule: CC(=O)Cn1cnc2c(Br)c(Br)c(Br)c(Br)c21
resultUnits: %
remaining activity at 5 µM: 32.3
//
molecule: CC(O)CCn1cnc2c(Br)c(Br)c(Br)c(Br)c21 (stereo not shown)
resultUnits: %
remaining activity at 5 µM: 21.3
//
molecule: CC(O)Cn1cnc2c(Br)c(Br)c(Br)c(Br)c21 (stereo not shown)
resultUnits: %
remaining activity at 5 µM: 41.8
